Tested on: lymphoma cell lines
ASSAY: IC50 against lymphoma cell lines
Format: cell-based
APPLIED CONDITIONS: Homo sapiens
pIC50: −log10 of the molar value.
METRIC: pIC50

[[record]]
structure = "COC(=O)[C@H]1[C@@H](O)[C@@]2(O)c3c(OC)cc(O[C@@H]4O[C@@H]([C@H](O)CO)CO[C@H]4OC)cc3O[C@@]2(c2ccc(OC)cc2)[C@@H]1c1ccccc1"
test_system = "lymphoma cell lines"
observed_result = "> 8.00"

